# test_system: T1, rat collagen (acid soluble, type I, rat tail, Upstate 08-115) (rat, UniProt P02454 152-1207; P02466 86-1125)
# T1 construct: also called dried rat collagen; insoluble rat collagen
# T1 sequence (P02454 152-1207 limits assumed, chain 1 of 2): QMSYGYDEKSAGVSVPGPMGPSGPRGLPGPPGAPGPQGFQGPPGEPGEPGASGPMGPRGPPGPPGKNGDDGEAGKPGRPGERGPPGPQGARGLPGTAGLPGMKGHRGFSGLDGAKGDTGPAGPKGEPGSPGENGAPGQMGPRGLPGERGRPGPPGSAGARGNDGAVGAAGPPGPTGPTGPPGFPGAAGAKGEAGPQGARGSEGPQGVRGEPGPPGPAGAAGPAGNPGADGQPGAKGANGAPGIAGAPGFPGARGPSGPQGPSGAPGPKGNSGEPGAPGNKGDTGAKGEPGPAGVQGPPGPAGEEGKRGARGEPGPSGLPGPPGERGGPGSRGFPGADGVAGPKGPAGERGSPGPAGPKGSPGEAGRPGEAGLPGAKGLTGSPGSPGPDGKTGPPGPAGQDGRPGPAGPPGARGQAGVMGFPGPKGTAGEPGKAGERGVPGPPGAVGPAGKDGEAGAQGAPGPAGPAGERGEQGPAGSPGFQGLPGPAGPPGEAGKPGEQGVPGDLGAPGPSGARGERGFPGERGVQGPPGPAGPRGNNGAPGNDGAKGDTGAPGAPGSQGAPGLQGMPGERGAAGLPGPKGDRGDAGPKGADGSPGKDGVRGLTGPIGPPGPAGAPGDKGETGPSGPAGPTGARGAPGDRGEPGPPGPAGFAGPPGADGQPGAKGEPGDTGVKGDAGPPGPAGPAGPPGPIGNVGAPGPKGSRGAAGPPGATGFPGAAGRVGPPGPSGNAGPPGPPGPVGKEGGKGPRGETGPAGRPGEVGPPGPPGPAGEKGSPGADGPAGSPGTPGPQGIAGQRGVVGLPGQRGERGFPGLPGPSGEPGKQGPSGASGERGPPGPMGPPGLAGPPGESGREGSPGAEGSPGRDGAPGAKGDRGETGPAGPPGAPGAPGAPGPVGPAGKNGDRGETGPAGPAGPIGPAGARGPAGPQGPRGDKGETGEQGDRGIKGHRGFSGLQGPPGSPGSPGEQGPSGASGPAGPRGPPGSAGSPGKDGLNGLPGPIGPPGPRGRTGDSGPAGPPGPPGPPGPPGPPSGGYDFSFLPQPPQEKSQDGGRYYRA
# T1 sequence (P02466 86-1125 limits assumed, chain 2 of 2): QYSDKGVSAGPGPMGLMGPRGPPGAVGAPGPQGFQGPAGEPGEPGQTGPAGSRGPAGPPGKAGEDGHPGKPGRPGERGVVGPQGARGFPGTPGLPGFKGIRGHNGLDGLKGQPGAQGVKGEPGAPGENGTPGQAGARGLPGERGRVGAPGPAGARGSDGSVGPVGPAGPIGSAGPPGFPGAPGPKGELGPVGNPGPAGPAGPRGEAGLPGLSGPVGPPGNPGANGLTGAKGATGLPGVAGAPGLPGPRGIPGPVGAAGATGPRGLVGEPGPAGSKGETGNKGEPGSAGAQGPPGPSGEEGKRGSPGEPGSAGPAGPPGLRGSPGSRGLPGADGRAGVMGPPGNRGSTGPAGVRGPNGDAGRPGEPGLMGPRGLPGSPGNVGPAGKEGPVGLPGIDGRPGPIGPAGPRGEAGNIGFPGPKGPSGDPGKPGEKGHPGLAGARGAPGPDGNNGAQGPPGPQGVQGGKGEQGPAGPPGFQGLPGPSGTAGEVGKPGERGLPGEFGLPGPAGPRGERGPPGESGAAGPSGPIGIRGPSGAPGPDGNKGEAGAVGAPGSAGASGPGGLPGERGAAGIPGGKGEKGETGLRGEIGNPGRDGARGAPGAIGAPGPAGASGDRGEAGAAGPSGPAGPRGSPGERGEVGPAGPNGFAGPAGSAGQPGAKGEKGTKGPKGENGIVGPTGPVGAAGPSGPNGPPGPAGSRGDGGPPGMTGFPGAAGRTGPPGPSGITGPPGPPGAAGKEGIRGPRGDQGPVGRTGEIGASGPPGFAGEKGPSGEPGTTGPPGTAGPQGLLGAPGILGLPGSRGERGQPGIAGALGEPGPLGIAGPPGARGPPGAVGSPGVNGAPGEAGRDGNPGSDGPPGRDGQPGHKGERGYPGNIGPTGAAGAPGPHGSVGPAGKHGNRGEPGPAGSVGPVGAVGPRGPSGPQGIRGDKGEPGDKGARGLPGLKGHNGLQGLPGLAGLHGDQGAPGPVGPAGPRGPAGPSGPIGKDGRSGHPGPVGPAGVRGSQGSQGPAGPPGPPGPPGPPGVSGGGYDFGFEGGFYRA
# measurement_notes: dried collagen assay
Bridge positions count the residues as written; N and C are the ends. Square brackets hold non-standard residues; d marks the D form. Ends that are not written are not given here.
property_name: % bound (%)
# number only, unit % dropped from output

Please give measured % bound of the following entry: Y[dH]ACYQAGCWIW (disulfide 4-9 (inferred)) [SEQ ID NO: 153]
0

Provide % bound value for the following binder: YHACYQAGC[dW]IW (disulfide 4-9 (inferred)) [SEQ ID NO: 160]
12

Identify measured % bound associated with YHACYQAGCW[dI]W (disulfide 4-9 (inferred)) [SEQ ID NO: 161]
10
